Measured values drawn from the supplement of paper PMC9112550 for this set.

Overview of reported shrunken log2 fold change across a group of sequences:
tested on: Escherichia coli TOP10; assay: shrunken log2 fold change of peptide-encoding DNA abundance (4.5 h post-induction vs induction); higher = less antimicrobial activity (less host growth inhibition); conditions: time post-induction: 4.5 h; library: site-saturation at positions 5, 18, 19, 20

polymer sequence: RRIRWRPPRLPRPRPRPPDLPRP
system under test: Escherichia coli TOP10
shrunken log2 fold change: 0.888
--
polymer sequence: RRIRDRPPRLPRPRPRPNMTPRP
system under test: Escherichia coli TOP10
shrunken log2 fold change: 0.0572
--
polymer sequence: RRIRIRPPRLPRPRPRPQVCPRP
system under test: Escherichia coli TOP10
shrunken log2 fold change: 0.0108
--
polymer sequence: RRIRSRPPRLPRPRPRPYEGPRP
system under test: Escherichia coli TOP10
shrunken log2 fold change: -0.213
--
polymer sequence: RRIRERPPRLPRPRPRPIPCPRP
system under test: Escherichia coli TOP10
shrunken log2 fold change: -0.341

Now consider a different sequence.
Task item: Query shrunken log2 fold change on Escherichia coli TOP10 for RRIRPRPPRLPRPRPRPGSTPRP
Reply: 0.123

###

Overview of reported shrunken log2 fold change across a group of sequences:
tested on: Escherichia coli TOP10; test: shrunken log2 fold change of peptide-encoding DNA abundance (4.5 h post-induction vs induction); higher = less antimicrobial activity (less host growth inhibition); settings: time post-induction: 4.5 h; library: site-saturation at positions 5, 18, 19, 20

# count of solved cases: 5
polymer sequence: RRIRQRPPRLPRPRPRPRHHPRP
shrunken log2 fold change: 0.0815
//
polymer sequence: RRIRGRPPRLPRPRPRPTCEPRP
shrunken log2 fold change: 1.1
//
polymer sequence: RRIRHRPPRLPRPRPRPNPLPRP
shrunken log2 fold change: -0.0904
//
polymer sequence: RRIRGRPPRLPRPRPRPVKYPRP
shrunken log2 fold change: 0.235
//
polymer sequence: RRIRVRPPRLPRPRPRPMSAPRP
shrunken log2 fold change: 0.262

Task item: Give its shrunken log2 fold change value. Item: RRIRNRPPRLPRPRPRPYNFPRP
Reply: -0.176

Task item: Give its shrunken log2 fold change value. Item: RRIRGRPPRLPRPRPRPPSLPRP
Reply: 0.477

Task item: Give its shrunken log2 fold change value. Item: RRIRWRPPRLPRPRPRPQAQPRP
Reply: 0.00496

Task item: Give its shrunken log2 fold change value. Item: RRIRLRPPRLPRPRPRPGFRPRP
Reply: 0.0673

Task item: Give its shrunken log2 fold change value. Item: RRIRQRPPRLPRPRPRPQLHPRP
Reply: -0.237

###

test system: Escherichia coli TOP10; test: shrunken log2 fold change of peptide-encoding DNA abundance (4.5 h post-induction vs induction); higher = less antimicrobial activity (less host growth inhibition); conditions: time post-induction: 4.5 h; library: site-saturation at positions 5, 18, 19, 20
Binary call on shrunken log2 fold change: 1 from -0.1 upward, 0 beneath that.

Consider the following illustrative entries.
polymer sequence: RRIRTRPPRLPRPRPRPHCNPRP
label class: 0
--
polymer sequence: RRIRTRPPRLPRPRPRPREIPRP
label class: 1

Task item: Tell me whether shrunken log2 fold change is at least -0.1 here: RRIRERPPRLPRPRPRPTCHPRP
Reply: 0

Task item: Tell me whether shrunken log2 fold change is at least -0.1 here: RRIRVRPPRLPRPRPRPGQIPRP
Reply: 1

Task item: Tell me whether shrunken log2 fold change is at least -0.1 here: RRIRCRPPRLPRPRPRPLMDPRP
Reply: 0

###

Overview of reported shrunken log2 fold change across a group of sequences:
test system: Escherichia coli TOP10; experiment: shrunken log2 fold change of peptide-encoding DNA abundance (4.5 h post-induction vs induction); higher = less antimicrobial activity (less host growth inhibition); settings: time post-induction: 4.5 h; library: site-saturation at positions 5, 18, 19, 20
Answer field: number only, no words.

polymer sequence: RRIRFRPPRLPRPRPRPCHHPRP
quantity: shrunken log2 fold change
recorded result: -0.0196

Task item: Give its shrunken log2 fold change value. Item: RRIRMRPPRLPRPRPRPGNDPRP
Reply: 1.19

Task item: Give its shrunken log2 fold change value. Item: RRIRRRPPRLPRPRPRPEYVPRP
Reply: 0.0703

Task item: Give its shrunken log2 fold change value. Item: RRIRKRPPRLPRPRPRPDARPRP
Reply: -0.0173

Task item: Give its shrunken log2 fold change value. Item: RRIRRRPPRLPRPRPRPCPHPRP
Reply: -0.27

Task item: Give its shrunken log2 fold change value. Item: RRIRDRPPRLPRPRPRPYRDPRP
Reply: -0.444

###

system: Escherichia coli TOP10; test: shrunken log2 fold change of peptide-encoding DNA abundance (4.5 h post-induction vs induction); higher = less antimicrobial activity (less host growth inhibition); details: time post-induction: 4.5 h; library: site-saturation at positions 5, 18, 19, 20
quantity: shrunken log2 fold change

# count of solved cases: 10
polymer sequence: RRIRMRPPRLPRPRPRPTPVPRP
shrunken log2 fold change: 1.14
//
polymer sequence: RRIRDRPPRLPRPRPRPFKLPRP
shrunken log2 fold change: 0.0184
//
polymer sequence: RRIRVRPPRLPRPRPRPMQPPRP
shrunken log2 fold change: -0.0152
//
polymer sequence: RRIRERPPRLPRPRPRPWFYPRP
shrunken log2 fold change: -0.985
//
polymer sequence: RRIRNRPPRLPRPRPRPTFTPRP
shrunken log2 fold change: -0.245
//
polymer sequence: RRIRRRPPRLPRPRPRPKQTPRP
shrunken log2 fold change: 0.186
//
polymer sequence: RRIRWRPPRLPRPRPRPPDVPRP
shrunken log2 fold change: 0.235
//
polymer sequence: RRIRQRPPRLPRPRPRPSYQPRP
shrunken log2 fold change: -0.635
//
polymer sequence: RRIRQRPPRLPRPRPRPIAYPRP
shrunken log2 fold change: -0.133
//
polymer sequence: RRIRQRPPRLPRPRPRPFLQPRP
shrunken log2 fold change: -0.194

Now consider a different sequence.
Task item: Give its shrunken log2 fold change value. Item: RRIRERPPRLPRPRPRPHSWPRP
Reply: -0.183

###

tested on: Escherichia coli TOP10; assay: shrunken log2 fold change of peptide-encoding DNA abundance (4.5 h post-induction vs induction); higher = less antimicrobial activity (less host growth inhibition); conditions: time post-induction: 4.5 h; library: site-saturation at positions 5, 18, 19, 20
Overview of reported shrunken log2 fold change across a group of sequences:
Answer field: number only, no words.

# count of solved cases: 4
polymer sequence: RRIRQRPPRLPRPRPRPEWPPRP
system under test: Escherichia coli TOP10
shrunken log2 fold change: -0.0954
--
polymer sequence: RRIRCRPPRLPRPRPRPVLQPRP
system under test: Escherichia coli TOP10
shrunken log2 fold change: 1.24
--
polymer sequence: RRIRFRPPRLPRPRPRPCHVPRP
system under test: Escherichia coli TOP10
shrunken log2 fold change: 0.0269
--
polymer sequence: RRIRKRPPRLPRPRPRPFKTPRP
system under test: Escherichia coli TOP10
shrunken log2 fold change: 0.427

Task item: Give its shrunken log2 fold change value. Item: RRIRGRPPRLPRPRPRPTDMPRP
Reply: 1.1

Task item: Give its shrunken log2 fold change value. Item: RRIRKRPPRLPRPRPRPNGTPRP
Reply: -0.0678

Task item: Give its shrunken log2 fold change value. Item: RRIRARPPRLPRPRPRPMYGPRP
Reply: 0.22

Task item: Give its shrunken log2 fold change value. Item: RRIRDRPPRLPRPRPRPQPTPRP
Reply: 0.0584

###

tested on: Escherichia coli TOP10; assay: shrunken log2 fold change of peptide-encoding DNA abundance (4.5 h post-induction vs induction); higher = less antimicrobial activity (less host growth inhibition); conditions: time post-induction: 4.5 h; library: site-saturation at positions 5, 18, 19, 20
Overview of reported shrunken log2 fold change across a group of sequences:

Task item: Give its shrunken log2 fold change value. Item: RRIRCRPPRLPRPRPRPRTDPRP
Reply: 0.0321

###

Overview of reported shrunken log2 fold change across a group of sequences:
system: Escherichia coli TOP10; assay: shrunken log2 fold change of peptide-encoding DNA abundance (4.5 h post-induction vs induction); higher = less antimicrobial activity (less host growth inhibition); conditions: time post-induction: 4.5 h; library: site-saturation at positions 5, 18, 19, 20;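 further: peptides expressed intracellularly from a pBAD plasmid library in pooled LB shake-flask culture, induced with 0.3% L-arabinose, DNA abundance read by NGS, three biological replicates, DESeq2 with apeglm shrinkage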
Answer field: number only, no words.

# count of solved cases: 5
polymer sequence: RRIRARPPRLPRPRPRPICSPRP
shrunken log2 fold change: 0.251
--
polymer sequence: RRIRARPPRLPRPRPRPFEVPRP
shrunken log2 fold change: 0.455
--
polymer sequence: RRIRLRPPRLPRPRPRPSFQPRP
shrunken log2 fold change: -0.514
--
polymer sequence: RRIRPRPPRLPRPRPRPCHRPRP
shrunken log2 fold change: -0.181
--
polymer sequence: RRIRSRPPRLPRPRPRPEPWPRP
shrunken log2 fold change: 0.548

Task item: Give its shrunken log2 fold change value. Item: RRIRGRPPRLPRPRPRPCRNPRP
Reply: 0.0316

Task item: Give its shrunken log2 fold change value. Item: RRIRKRPPRLPRPRPRPYCQPRP
Reply: -0.773

Task item: Give its shrunken log2 fold change value. Item: RRIRFRPPRLPRPRPRPHMPPRP
Reply: -0.0659

Task item: Give its shrunken log2 fold change value. Item: RRIRKRPPRLPRPRPRPSFRPRP
Reply: -0.294

Task item: Give its shrunken log2 fold change value. Item: RRIRSRPPRLPRPRPRPSWRPRP
Reply: 0.0852
